molecular target: T1, full-length recombinant human PAD4 (human, UniProt Q9UM07 1-663); experiment: ELISA, coated human PAD4; antibody 1 ug/mL
T1 construct: Full-length recombinant; also called peptidylarginine deiminase 4
T1 sequence (Q9UM07 whole entry): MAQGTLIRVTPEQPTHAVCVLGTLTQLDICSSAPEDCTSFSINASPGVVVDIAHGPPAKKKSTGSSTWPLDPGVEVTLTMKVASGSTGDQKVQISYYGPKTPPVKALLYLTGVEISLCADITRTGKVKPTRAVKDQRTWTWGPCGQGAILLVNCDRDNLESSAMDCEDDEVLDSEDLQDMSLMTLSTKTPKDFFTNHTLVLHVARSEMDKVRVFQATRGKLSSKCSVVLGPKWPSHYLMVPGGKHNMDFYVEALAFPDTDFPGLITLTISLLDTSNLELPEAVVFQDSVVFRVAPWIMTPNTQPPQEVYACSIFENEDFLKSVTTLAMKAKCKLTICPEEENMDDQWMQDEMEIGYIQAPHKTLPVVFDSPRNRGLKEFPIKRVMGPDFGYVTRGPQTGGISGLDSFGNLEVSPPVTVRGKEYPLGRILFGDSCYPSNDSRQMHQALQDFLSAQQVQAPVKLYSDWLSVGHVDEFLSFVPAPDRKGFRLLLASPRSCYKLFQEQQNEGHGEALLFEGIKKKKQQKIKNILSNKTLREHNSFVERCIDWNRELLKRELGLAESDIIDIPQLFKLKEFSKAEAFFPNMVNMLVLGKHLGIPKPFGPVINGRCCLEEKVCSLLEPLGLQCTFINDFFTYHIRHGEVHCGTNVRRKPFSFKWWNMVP
Value type: OD 490/630 nm

[[record]]
binder = "G6 (antibody, V domains shown, Chicken variable regions in a mouse chimeric antibody (IgG1); also called anti-PAD4 antibody G6) VH: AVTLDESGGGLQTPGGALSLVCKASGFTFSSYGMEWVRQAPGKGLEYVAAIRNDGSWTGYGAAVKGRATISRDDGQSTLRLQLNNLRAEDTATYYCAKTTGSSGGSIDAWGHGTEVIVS VL: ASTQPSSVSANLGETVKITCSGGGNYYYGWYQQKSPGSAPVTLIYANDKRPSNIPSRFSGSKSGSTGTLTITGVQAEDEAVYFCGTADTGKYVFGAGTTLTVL"
reported_measurement = 2.11

[[record]]
binder = "E9 (antibody, V domains shown, Chicken variable regions in a mouse chimeric antibody (IgG1); also called anti-PAD4 antibody E9) VH: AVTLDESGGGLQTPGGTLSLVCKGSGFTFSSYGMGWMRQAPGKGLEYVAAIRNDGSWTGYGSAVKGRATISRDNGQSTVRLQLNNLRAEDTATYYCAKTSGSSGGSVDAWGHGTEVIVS VL: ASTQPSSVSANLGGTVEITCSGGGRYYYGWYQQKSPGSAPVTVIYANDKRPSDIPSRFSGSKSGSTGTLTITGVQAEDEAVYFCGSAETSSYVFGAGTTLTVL"
reported_measurement = 2.11

[[record]]
binder = "G9 (antibody, V domains shown, Chicken variable regions in a mouse chimeric antibody (IgG1); also called anti-PAD4 antibody G9) VH: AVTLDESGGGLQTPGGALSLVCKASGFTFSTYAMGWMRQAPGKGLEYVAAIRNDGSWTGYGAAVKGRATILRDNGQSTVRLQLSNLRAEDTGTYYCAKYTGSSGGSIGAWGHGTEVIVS VL: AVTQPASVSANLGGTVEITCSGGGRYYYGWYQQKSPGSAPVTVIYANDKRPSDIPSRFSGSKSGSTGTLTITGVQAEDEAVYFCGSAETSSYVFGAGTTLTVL"
reported_measurement = 2.1

